# Tested on: 648629-189-R-J1-PDC complex spheroids viability;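 also: drug exposure lasted seven days before viability readout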
# EXPERIMENT_DESCRIPTION: Anticancer human tumor 648629-189-R-J1-PDC patient-derived bladder carcinoma cell line growth inhibition [CLK]; active = viability on the fitted dose curve at most 10% of control; inactive = the rest
# SETUP_CONDITIONS: second compound 1 µM; first compound 3.16 µM
Allowed answers: active, inactive

MOLECULE	CLASS
C=CC(=O)N1CCN(c2nc(=O)n(-c3c(C)ccnc3C(C)C)c3nc(-c4c(O)cccc4F)c(F)cc23)C(C)C1 (stereo not given) + CN1CCN(c2cc(C(=O)Nc3cc4cc(-c5cnn(C)c5)ccc4cn3)ccn2)CC1	active
COc1cccc2c1C(=O)c1c(O)c3c(c(O)c1C2=O)CC(O)(C(=O)CO)CC3OC1CC(N)C(O)C(C)O1 (stereo not given) + CNC(=O)c1ccc(Nc2nc(OC3CCCC3)c3c(-c4ccc5nc(C)oc5c4)c[nH]c3n2)c(OC)c1	active
CCCS(=O)(=O)Nc1ccc(F)c(C(=O)c2c[nH]c3ncc(-c4ccc(Cl)cc4)cc23)c1F + CNC(=O)c1ccc(Nc2nc(OC3CCCC3)c3c(-c4ccc5nc(C)oc5c4)c[nH]c3n2)c(OC)c1	inactive
CC(CO)NC(=O)c1cc(-c2ccc(Cl)cc2)nn(-c2cnn(C)c2)c1=O (stereo not given) + CN1CCN(c2cc(C(=O)Nc3cc4cc(-c5cnn(C)c5)ccc4cn3)ccn2)CC1	active

In the following, a different molecule is considered.
input: Which result was noted for this molecule in the test: CCCS(=O)(=O)Nc1ccc(F)c(C(=O)c2c[nH]c3ncc(-c4ccc(Cl)cc4)cc23)c1F + CN1CCN(c2cc(C(=O)Nc3cc4cc(-c5cnn(C)c5)ccc4cn3)ccn2)CC1
output: active
